# ASSAY EXPLANATION: Pharmacokinetic analysis of oral administration to male rats
# Format: in vivo
# MEASUREMENT SETUP: male, SD, rat, plasma, po, 12 mg/kg, oral gavage 12 mg/kg, 3 h, mean of 7 rats, read-out: Blood drug concentration, Mean value
MEASUREMENT LABEL: concentration at 3 h

>>> endpoint_value("CC(=O)[C@H]1CC[C@H]2[C@@H]3CC[C@H]4C[C@H](O)CC[C@]4(C)[C@H]3CC[C@]12C [Allopregnanolone, 5α-pregnan-3α-ol-20-one, reference compound]")
"0 ng/mL"

We next turn to a different compound, shown below.
Inquiry: Sample CC(=O)[C@H]1CC[C@H]2[C@@H]3CC[C@H]4C[C@H](O[N+](=O)[O-])CC[C@]4(C)[C@H]3CC[C@]12C — what was its concentration at 3 h?
Reply text: 225 ng/mL

* * *

# ASSAY EXPLANATION: Pharmacokinetic analysis of tail vein administration in mice
# MEASUREMENT SETUP: female, ICR, mouse, brain/plasma, intravenous, 5 mg/kg
MEASUREMENT LABEL: Kp at 8 h
Numbers only.

Inquiry: Returns the measured Kp at 8 h for the input compound. Input: CC(=O)[C@H]1CC[C@H]2[C@@H]3CC[C@H]4C[C@H](O[N+](=O)[O-])CC[C@]4(C)[C@H]3CC[C@]12C
Reply text: 2.27

* * *

Answer each item with its documented half-life.
# ASSAY EXPLANATION: Pharmacokinetic analysis of tail vein administration in mice
# MEASUREMENT SETUP: female, ICR, mouse, plasma, iv, 5 mg/kg
# Method: Female ICR mice (body weight: 20 g to 22 g) were purchased from BEIJING HFK BIOSCIENCE CO., LTD. […] 100 μL of plasma sample, 10 μL of internal standard solution (100 ng/mL testosterone D-3 solution), and 310 μL of acetonitrile were accurately measured, uniformly mixed by vortexing, and centrifuged (14000 rpm, 4° C.), and a resulting supernatant was taken to obtain the plasma sample. […]
Give bare numbers, in min.

>>> endpoint_value("CC(=O)[C@H]1CC[C@H]2[C@@H]3CC[C@H]4C[C@H](O[N+](=O)[O-])CC[C@]4(C)[C@H]3CC[C@]12C")
50.4

Inquiry: Item CC(=O)[C@H]1CC[C@H]2[C@@H]3CC[C@H]4C[C@H](O)CC[C@]4(C)[C@H]3CC[C@]12C [Allopregnanolone, 5α-pregnan-3α-ol-20-one, reference compound] has what recorded half-life?
Reply text: 40.8

* * *

# ASSAY EXPLANATION: Pharmacokinetic analysis of oral administration to male rats
# Type: in vivo
# MEASUREMENT SETUP: rat, plasma; male SD rats, oral gavage 12 mg/kg
MEASUREMENT LABEL: AUC(0-t) (ng·h/mL)
One number for each entry, in ng·h/mL.

Inquiry: # input compound: CC(=O)[C@H]1CC[C@H]2[C@@H]3CC[C@H]4C[C@H](O[N+](=O)[O-])CC[C@]4(C)[C@H]3CC[C@]12C ; wanted: its AUC(0-t)
Reply text: 5830

* * *

# ASSAY EXPLANATION: Pharmacokinetic analysis of oral gavage administration in female rats
# MEASUREMENT SETUP: female, SD, rat, liver, po, 12 mg/kg
MEASUREMENT LABEL: concentration at 8 h (ng/g)
One number for each entry, in ng/g.

Inquiry: Would you mind telling me what concentration at 8 h value was observed for CC(=O)[C@H]1CC[C@H]2[C@@H]3CC[C@H]4C[C@H](O[N+](=O)[O-])CC[C@]4(C)[C@H]3CC[C@]12C ?
Reply text: 3700

* * *

Exercise: state measured concentration at 8 h for each of the compounds provided.
# ASSAY EXPLANATION: Pharmacokinetic analysis of tail vein administration in mice
# MEASUREMENT SETUP: female, ICR, mouse, brain, intravenous, 5 mg/kg
Numbers only, in ng/g.

>>> endpoint_value("CC(=O)[C@H]1CC[C@H]2[C@@H]3CC[C@H]4C[C@H](O[N+](=O)[O-])CC[C@]4(C)[C@H]3CC[C@]12C [Compound 1]")
31

Now for a further compound.
Inquiry: Consider the compound shown here: CC(=O)[C@H]1CC[C@H]2[C@@H]3CC[C@H]4C[C@H](O)CC[C@]4(C)[C@H]3CC[C@]12C [Allopregnanolone, 5α-pregnan-3α-ol-20-one, reference compound] What is its recorded concentration at 8 h?
Reply text: 14.4

* * *

# ASSAY EXPLANATION: Pharmacokinetic analysis of oral administration to male rats
# Format: in vivo
# MEASUREMENT SETUP: male, SD, rat, plasma, po, 12 mg/kg, oral gavage 12 mg/kg, 10 h, mean of 7 rats, read-out: Blood drug concentration, Mean value
Can you tell me concentration at 10 h for the items I'm about to list?
One number for each entry, in ng/mL.

>>> endpoint_value("CC(=O)[C@H]1CC[C@H]2[C@@H]3CC[C@H]4C[C@H](O[N+](=O)[O-])CC[C@]4(C)[C@H]3CC[C@]12C [Compound 1]")
518

Inquiry: For the molecule shown here, CC(=O)[C@H]1CC[C@H]2[C@@H]3CC[C@H]4C[C@H](O)CC[C@]4(C)[C@H]3CC[C@]12C [Allopregnanolone, 5α-pregnan-3α-ol-20-one, reference compound] , give the reported concentration at 10 h.
Reply text: 0

* * *

# ASSAY EXPLANATION: Pharmacokinetic analysis of oral administration to male rats
# Assay type: in vivo
# MEASUREMENT SETUP: male, SD, rat, plasma, po, 12 mg/kg, oral gavage 12 mg/kg, 10 h, individual rats 1-7, read-out: Blood drug concentration
MEASUREMENT LABEL: concentration at 10 h (ng/mL)
Numbers only, in ng/mL.

Inquiry: concentration at 10 h for CC(=O)[C@H]1CC[C@H]2[C@@H]3CC[C@H]4C[C@H](O)CC[C@]4(C)[C@H]3CC[C@]12C [Allopregnanolone, 5α-pregnan-3α-ol-20-one, reference compound] ?
Reply text: 0

* * *

# ASSAY EXPLANATION: Pharmacokinetic analysis of tail vein administration in mice
# MEASUREMENT SETUP: female, ICR, mouse, brain/plasma, intravenous, 5 mg/kg
Record form. Attribute: Kp at 5 min. Fill in for each entry.
Numbers only.

>>> endpoint_value("CC(=O)[C@H]1CC[C@H]2[C@@H]3CC[C@H]4C[C@H](O)CC[C@]4(C)[C@H]3CC[C@]12C [Allopregnanolone, 5α-pregnan-3α-ol-20-one, reference compound]")
1.28

Read the next record carefully.
Inquiry: // query Kp at 5 min value for entry CC(=O)[C@H]1CC[C@H]2[C@@H]3CC[C@H]4C[C@H](O[N+](=O)[O-])CC[C@]4(C)[C@H]3CC[C@]12C [Compound 1]
Reply text: 0.65

* * *

# ASSAY EXPLANATION: Pharmacokinetic analysis of oral administration to male rats
# Type: in vivo
# MEASUREMENT SETUP: male, SD, rat, plasma, po, 12 mg/kg, oral gavage 12 mg/kg, 1 h, mean of 7 rats, read-out: Blood drug concentration, Mean value
MEASUREMENT LABEL: concentration at 1 h (ng/mL)
Answers are plain numbers, in ng/mL.

>>> endpoint_value("CC(=O)[C@H]1CC[C@H]2[C@@H]3CC[C@H]4C[C@H](O[N+](=O)[O-])CC[C@]4(C)[C@H]3CC[C@]12C")
28.2

Inquiry: # query: concentration at 1 h of entry CC(=O)[C@H]1CC[C@H]2[C@@H]3CC[C@H]4C[C@H](O)CC[C@]4(C)[C@H]3CC[C@]12C [Allopregnanolone, 5α-pregnan-3α-ol-20-one, reference compound]
Reply text: 0

* * *

# ASSAY EXPLANATION: Pharmacokinetic analysis of oral administration to male rats
# Format: in vivo
# MEASUREMENT SETUP: rat, plasma; male SD rats, oral gavage 12 mg/kg
MEASUREMENT LABEL: half-life (h)
One number for each entry, in h.

Inquiry: I have this molecule here, CC(=O)[C@H]1CC[C@H]2[C@@H]3CC[C@H]4C[C@H](O[N+](=O)[O-])CC[C@]4(C)[C@H]3CC[C@]12C [Compound 1] , and I need its recorded half-life.
Reply text: 4.5

* * *

# ASSAY EXPLANATION: In vitro phase I metabolic stability in male SD rat hepatic microsomes
# Assay type: in vitro ADME
# MEASUREMENT SETUP: liver microsomes; male SD rat hepatic microsomes; read-out: intrinsic clearance
Field: microsomal CLint. Provide a value for each of the compounds that follow.
One number for each entry, in µL/min/mg.

>>> endpoint_value("CC(=O)[C@H]1CC[C@H]2[C@@H]3CC[C@H]4C[C@H](O[N+](=O)[O-])CC[C@]4(C)[C@H]3CC[C@]12C")
14.8

Next, consider the following compound.
Inquiry: State the recorded microsomal CLint for this entry: CC(=O)[C@H]1CC[C@H]2[C@@H]3CC[C@H]4C[C@H](O)CC[C@]4(C)[C@H]3CC[C@]12C [Allopregnanolone, 5α-pregnan-3α-ol-20-one, reference compound]
Reply text: 639
